Values compiled from patent US9618524B2.

Tested on: Low density cholesterol (Chl small) plaque particles
Protocol description: Mass spectroscopy proteomics, semi-quantitative binding affinity of serum proteins (plaqueproteome, Table 2)
Design: species or system human
Protocol conditions: higher number = stronger affinity
Endpoint name: Semi-quantitative analysis of proteins binding to different plaque particles: Chl small

Molecule	Numeric readout
Leucine-rich alpha-2-glycoprotein (protein) VTLSPKDCQVFRSDHGSSISCQPPAEIPGYLPADTVHLAVEFFNLTHLPANLLQGASKLQELHLSSNGLESLSPEFLRPVPQLRVLDLTRNALTGLPPGLFQASATLDTLVLKENQLEVLEVSWLHGLKALGHLDLSGNRLRKLPPGLLANFTLLRTLDLGENQLETLPPDLLRGPLQLERLHLEGNKLQVLGKDLLLPQPDLRYLFLNGNKLARVAAGAFQGLRQLDMLDLSNNSLASVPEGLWASLGQPNWDMRDGFDISGNPWICDQNLSDLYRWLQAQKDKMFSQNDTRCAGPEAVKGQTLLAVAKSQ	3
Caspase-14 (protein) MSNPRSLEEEKYDMSGARLALILCVTKAREGSEEDLDALEHMFRQLRFESTMKRDPTAEQFQEELEKFQQAIDSREDPVSCAFVVLMAHGREGFLKGEDGEMVKLENLFEALNNKNCQALRAKPKVYIIQACRGEQRDPGETVGGDEIVMVIKDSPQTIPTYTDALHVYSTVEGYIAYRHDQKGSCFIQTLVDVFTKRKGHILELLTEVTRRMAEAELVQEGKARKTNPEIQSTLRKRLYLQ	0
Isoform 2 of Arginase-1 (protein) MSAKSRTIGIIGAPFSKGQPRGGVEEGPTVLRKAGLLEKLKEQVTQNFLILECDVKDYGDLPFADIPNDSPFQIVKNPRSVGKASEQLAGKVAEVKKNGRISLVLGGDHSLAIGSISGHARVHPDLGVIWVDAHTDINTPLTTTSGNLHGQPVSFLLKELKGKIPDVPGFSWVTPCISAKDIVYIGLRDVDPGEHYILKTLGIKYFSMTEVDRLGIGKVMEETLSYLLGRKKRPIHLSFDVDGLDPSFTPATGTPVVGGLTYREGLYITEEIYKTGLLSGLDIMEVNPSLGKTPEEVTRTVNTAVAITLACFGLAREGNHKPIDYLNPPK	0
Protein S100-A7 (protein) SNTQAERSIIGMIDMFHKYTRRDDKIEKPSLLTMMKENFPNFLSACDKKGTNYLADVFEKKDKNEDKKIDFSEFLSLLGDIATDYHKQSHGAAPCSGGSQ	0
Beta-2-glycoprotein 1 (protein) GRTCPKPDDLPFSTVVPLKTFYEPGEEITYSCKPGYVSRGGMRKFICPLTGLWPINTLKCTPRVCPFAGILENGAVRYTTFEYPNTISFSCNTGFYLNGADSAKCTEEGKWSPELPVCAPIICPPPSIPTFATLRVYKPSAGNNSLYRDTAVFECLPQHAMFGNDTITCTTHGNWTKLPECREVKCPFPSRPDNGFVNYPAKPTLYYKDKATFGCHDGYSLDGPEEIECTKLGNWSAMPSCKASCKVPVKKATVVYQGERVKIQEKFKNGMLHGDKVSFFCKNKEKKCSYTEDAQCIDGTIEVPKCFKEHSSLAFWKTDASDVKPC	6
Thioredoxin (protein) VKQIESKTAFQEALDAAGDKLVVVDFSATWCGPCKMIKPFFHSLSEKYSNVIFLEVDVDDCQDVASECEVKCMPTFQFFKKGQKVGEFSGANKEKLEATINELV	0
